- Target Under Test: Sodium/glucose cotransporter 2 (Homo sapiens)
- Sequence (P31639 whole entry): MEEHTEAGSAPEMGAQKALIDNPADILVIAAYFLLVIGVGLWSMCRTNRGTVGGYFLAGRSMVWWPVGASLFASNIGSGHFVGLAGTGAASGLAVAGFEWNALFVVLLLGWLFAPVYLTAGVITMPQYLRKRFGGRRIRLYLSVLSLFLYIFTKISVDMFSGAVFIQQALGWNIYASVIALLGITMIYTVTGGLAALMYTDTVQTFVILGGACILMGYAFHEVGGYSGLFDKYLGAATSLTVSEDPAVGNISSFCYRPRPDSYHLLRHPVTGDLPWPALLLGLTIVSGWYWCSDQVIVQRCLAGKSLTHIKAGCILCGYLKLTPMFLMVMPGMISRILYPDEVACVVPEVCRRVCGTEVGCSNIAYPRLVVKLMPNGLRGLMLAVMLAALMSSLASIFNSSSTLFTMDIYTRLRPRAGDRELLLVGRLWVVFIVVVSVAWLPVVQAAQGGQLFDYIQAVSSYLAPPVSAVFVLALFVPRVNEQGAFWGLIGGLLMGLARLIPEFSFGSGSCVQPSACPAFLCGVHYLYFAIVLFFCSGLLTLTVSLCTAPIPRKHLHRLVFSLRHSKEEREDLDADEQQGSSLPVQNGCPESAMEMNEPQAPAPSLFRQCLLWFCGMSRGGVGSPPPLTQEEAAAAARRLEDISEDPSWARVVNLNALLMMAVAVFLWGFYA
- Assay Text: Inhibition of human SGLT2 expressed in CHOK1 cells assessed as reduction in Na-dependent [14C]-methyl-alpha-D-glucopyranoside uptake after 1 hr by microbeta counting method
Parameter: IC50 (nM)

| Item Smiles | Unit Descriptor | IC50 |
| --- | --- | --- |
| CCOc1ccc(Cc2cc([C@@H]3S[C@H](CO)[C@@H](O)[C@H](O)[C@H]3O)c(O)cc2C)cc1 | nM | 3 |
| Cc1ccc(Cc2cc([C@@H]3S[C@H](CO)[C@@H](O)[C@H](O)[C@H]3O)c(O)cc2C)cc1 | nM | 2 |
| Cc1cc(O)c([C@@H]2S[C@H](CO)[C@@H](O)[C@H](O)[C@H]2O)cc1Cc1ccc(CCCC(=O)NC(CO)(CO)CO)cc1 | nM | 9 |

(I) Cc1cc(O)c([C@@H]2O[C@H](CO)[C@@H](O)[C@H](O)[C@H]2O)cc1Cc1ccc(CCNC(=O)NC(CO)(CO)CO)cc1
(II) CCc1ccc(Cc2cc([C@@H]3S[C@H](CO)[C@@H](O)[C@H](O)[C@H]3O)c(O)cc2C)cc1
query: Which has the smaller recorded IC50, I or II ? State the label of the item chosen.
result: II
(II: 2 nM, I: 7 nM)

(A) Cc1cc(O)c([C@@H]2S[C@H](CO)[C@@H](O)[C@H](O)[C@H]2O)cc1Cc1ccc(CCCC(=O)NC(C)(C)C(N)=O)cc1
(B) Cc1cc(O)c([C@@H]2O[C@H](CO)[C@@H](O)[C@H](O)[C@H]2O)cc1Cc1ccc(CCCC(=O)NC(C)(C)C(N)=O)cc1
query: // max by IC50 over [ A , B ] State the label of the item chosen.
result: B
(B: 7 nM, A: 4 nM)
